B1: FEM1A (parent)
chain: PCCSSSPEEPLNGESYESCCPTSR

- Variants of: B1
- RUN_DESCRIPTION: protein stability index of a GFP-peptide fusion (GPS, HEK-293T) (PSI 1-6); higher = more stable;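 note: lentivirally expressed fusions sorted by FACS into six bins by GFP to DsRed ratio, PSI derived from sequencing read proportions per bin multiplied by bin number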
- CONDITION_LABEL: c terminus: a fixed tail appended
ENDPOINT: protein stability index
Lab note: jot down the number only; don't add units.

• C2F = 4.55

Per the record, `S4Y` has protein stability index of 3.37

Per the record, `T22V` has protein stability index of 3.35

Per the record, `S15L` has protein stability index of 3.07

Per the record, `S4D` has protein stability index of 4.42

Per the record, `C19P` has protein stability index of 4.08
